PROTOCOL_SUMMARY: log P by HPLC (OECD Guideline 117), method [a] acidic range
Type: physicochemical
CONDITION_NOTES: HPLC, method [a] acidic range
logP[a]: recorded values
Field format: numeric only.

COc1ccccc1-c1nn(-c2cc(SCC(F)(F)F)c(C)cc2F)c(=O)n1C1CC1 :: 3.77
Cn1c(C(F)(F)F)nn(-c2cc(SCC(F)(F)F)c(C#N)cc2F)c1=O :: 3.09
Cc1cc(F)c(-n2nc(C(C)C)n(C3CC3)c2=S)cc1SCC(F)(F)F :: 4.1
CCc1nn(-c2cc(SCC(F)(F)F)c(C)cc2F)c(=O)n1-c1cccnc1 :: 2.91

What does the record list as logP[a] for CCOc1nn(-c2cc([S+]([O-])CC(F)(F)F)c(C)cc2F)c(=O)n1CC (stereo not drawn) ?
2.44

How about COC1=CC(=O)N(c2ccc(C(F)(F)F)c(SCC(F)(F)F)c2)C1 ?
3.31

How about Cc1cc(F)c(-n2nc(C)n(-c3ccccc3)c2=O)cc1SCC(F)(F)F ?
3.40

* * *

PROTOCOL_SUMMARY: log P by HPLC (OECD Guideline 117), method [a] acidic range
Assay type: physicochemical
CONDITION_NOTES: HPLC, method [a] acidic range
TEST_READOUT: logP[a]
Field format: numeric only.

Solved cases below.
C=CCn1c(OCC(F)(F)F)nn(-c2cc([S+]([O-])CC(F)(F)F)c(C)cc2F)c1=O (stereo not shown) :: 2.94
Cc1cc(F)c(-n2nc(C(F)(F)F)n(C3CC3)c2=O)cc1[S+]([O-])CC(F)(F)F (stereo not shown) :: 2.93
COc1nn(-c2ccc(Br)c([S+]([O-])CC(F)(F)F)c2)c(=O)n1C1CC1 (stereo not shown) :: 3.00

What does the record list as logP[a] for Cc1cc(F)c(-n2nc(OCC(C)(C)C)n(C)c2=O)cc1[S+]([O-])CC(F)(F)F (stereo not shown) ?
3.21

* * *

logP[a]: recorded values
PROTOCOL_SUMMARY: log P by HPLC (OECD Guideline 117), method [a] acidic range
Assay type: physicochemical
CONDITION_NOTES: HPLC, method [a] acidic range
Field format: numeric only.

Cc1cc(F)c(-n2nc(SCC3CC3)n(C)c2=O)cc1[S+]([O-])CC(F)(F)F (racemic) :: 2.82

What does the record list as logP[a] for COc1nn(-c2cc(SCC(F)(F)F)c(C)cc2F)c(=O)n1C1CC1 ?
3.16

How about COC1=CC(=O)N(c2cc(SCC(F)(F)F)c(Cl)cc2F)C1 ?
2.97

* * *

PROTOCOL_SUMMARY: log P by HPLC (OECD Guideline 117), method [a] acidic range
Assay type: physicochemical
CONDITION_NOTES: HPLC, method [a] acidic range
logP[a]: recorded values
Field format: numeric only.

Solved cases below.
C=CCn1c(SC(C)C)nn(-c2cc([S+]([O-])CC(F)(F)F)c(C)cc2F)c1=O (racemic) [Example 285] :: 3.24
CCCOc1nn(-c2cc(SCC(F)(F)F)c(C)cc2F)c(=O)n1C1CC1 [Example 113] :: 4.00
Cc1cc(F)c(-n2nc(Br)n(Cc3ccccc3)c2=O)cc1SCC(F)(F)F [Example 440] :: 4.18

What does the record list as logP[a] for Cc1cc(F)c(-n2nc(SCC(F)F)n(C)c2=O)cc1[S+]([O-])CC(F)(F)F (racemic) [Example 289] ?
3.30
